# assaySystem: IL-17A/A (Homo sapiens, UniProt Q16552)
# Construct: purchased Genscript Z03228
# Sequence (Q16552 24-155): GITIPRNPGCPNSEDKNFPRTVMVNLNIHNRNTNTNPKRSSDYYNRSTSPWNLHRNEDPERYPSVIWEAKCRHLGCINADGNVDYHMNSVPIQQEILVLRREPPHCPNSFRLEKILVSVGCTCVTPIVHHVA
# measurementNotes: IL-17A/A HEK-Blue Cell Assay
# Assay type: cell-based
# measurementParameters: HEK-Blue IL-17A reporter cell line, SEAP readout at A630, 20 hours incubation with IL-17A/A; top concentration 10 uM, 1 uM or 0.3 uM; read-out: IL-17A/A inhibition (pIC50) (converted)
# Description: The HEK-Blue IL-17A reporter cell line (Fisher #NC1408637) was used for cell-based IL-17A/A inhibition assays. Cells were grown and prepared for assays according to the manufacturer's instructions. […] Media from the cells is then added to a development reagent (Quanti-Blue Substrate, Fisher #NC9711613), and read at A630. […]
measuredMetric: IC50

In: Consider the molecule `CCC(=O)N[C@H](Cc1ccc(NC(=O)[C@@H](NC(=O)C(F)(F)c2cccc(C#N)c2)C2CCCCC2)c(F)c1)C(=O)N1CCN(C)CC1` and give its measured IC50.
Out: 10 to 100 nM

In: Follow-up entry: `CCC(=O)N[C@@H](C(=O)N1CCNC2(CC2)C1)[C@@H](C)c1ccc(NC(=O)[C@@H](NC(=O)c2nonc2CC)[C@H]2CC[C@H](C)CC2)c(F)c1`
Out: 10 to 100 nM

In: Repeat for the following molecule: `CCC(=O)N[C@@H](C(=O)N1CCN(C)CC1)[C@@H](C)c1ccc(NC(=O)[C@@H](NC(=O)c2coc3cc(OC)ccc23)C2CCCCCC2)c(F)c1`
Out: < 10 nM

* * *

Each item that follows carries a reported IC50.
# assaySystem: IL-17A/A (Homo sapiens)
# Construct: purchased Genscript Z03228
# measurementNotes: IL-17A/A HEK-Blue Cell Assay
# Type: cell-based
# measurementParameters: HEK-Blue IL-17A reporter cell line, SEAP readout at A630, 20 hours incubation with IL-17A/A; top concentration 10 uM, 1 uM or 0.3 uM; read-out: IL-17A/A inhibition (pIC50) (converted)

CCC(=O)N[C@@H](C(=O)N1CCC(C)(O)CC1)[C@@H](C)c1ccc(NC(=O)[C@@H](NC(=O)c2ccnn2CC)C2CCCCCC2)c(F)c1; < 10 nM
CCC(=O)N[C@@H](C(=O)N1CCN(C)CC1)[C@@H](C)c1ccc(NC(=O)[C@@H](NC(=O)c2ccnn2C(C)C)C2CCCCCC2)c(F)c1; < 10 nM
CCC(=O)N[C@@H](C(=O)N1CCN(C)CC1(C)C)[C@@H](C)c1ccc(NC(=O)[C@@H](NC(=O)c2ccnn2CC)[C@H]2CC[C@H](C)CC2)c(F)c1; < 10 nM
CCc1nonc1C(=O)N[C@H](C(=O)Nc1ccc([C@H](C)[C@@H](NC(=O)NC2CC2)C(=O)N2CCN(C)CC2)cc1F)[C@H]1CC[C@H](C)CC1; < 10 nM
CCn1nccc1C(=O)N[C@H](C(=O)Nc1ccc([C@H](C)[C@@H](NC(=O)c2c[nH]c(=O)[nH]2)C(=O)N2CCN(C)CC2)cc1F)C1CCCCC1; 100 to 10000 nM
CCC(=O)NC(C(=O)N1CCN(C)CC1)C(C)c1ccc(NC(=O)C(NC(=O)C(F)(F)c2cnc(OC)nc2)C2CCC(C)CC2)c(F)c1 (stereo not drawn); 10 to 100 nM
CCn1ncnc1C(=O)N[C@H](C(=O)Nc1ccc([C@H](C)[C@@H](NC(=O)c2cnns2)C(=O)N2CCN(C)CC2)cc1F)[C@H]1CC[C@H](C)CC1; 10 to 100 nM
CCc1nonc1C(=O)N[C@H](C(=O)Nc1ccc([C@H](C)[C@@H](NC(=O)CC2CC2)C(=O)N2CCN(C)CC2)cc1F)[C@H]1CC[C@H](C)CC1; < 10 nM

In: Any idea what its IC50 is? The molecule is `CCC(=O)N[C@H](Cc1ccc(NC(=O)[C@@H](NC(=O)c2ccnn2CC)[C@H]2CC[C@H](C)CC2)c(F)c1)C(=O)N1CCN(C)CC1`
Out: 100 to 10000 nM

In: And `CCn1nccc1C(=O)N[C@H](C(=O)Nc1ccc([C@H](C)[C@@H](NC(=O)c2ccnn2C2CCN(C)CC2)C(=O)N2CCN(C)CC2)cc1F)[C@H]1CC[C@H](C)CC1` ?
Out: 10 to 100 nM

In: How about this molecule: `CCC(=O)N[C@H](Cc1ccc(NC(=O)[C@@H](NC(=O)c2cc(Cl)nn2C)C2CCCCC2)c(F)c1)C(=O)N1CCN(C)CC1`
Out: 100 to 10000 nM

In: Again, but for `CCC(=O)N[C@@H](C(=O)N1CCN(C)CC1)[C@@H](C)c1ccc(NC(=O)[C@@H](NC(=O)c2conc2C(C)C)[C@H]2CC[C@H](C)CC2)c(F)c1`
Out: < 10 nM

The measured values listed here are drawn from patent US12421212B2.
